molecular target: Growth hormone secretagogue receptor type 1 (Homo sapiens); test: Agonist activity at human GHS receptor expressed in H4 glioma cells assessed as intracellular calcium concentration by FLIPR assay; type: functional, cell-based
READOUT KIND: EC50 (nM)

Answered cases to consult:
> print(dat)
                            molecule.smiles  experimental.result
1  COC(=O)CCn1nnnc1[C@@H](Cc1c[nH]c2ccccc12)NC(=O)C(C)(C)N                  200
2  CCCCNC(=O)CCn1nnnc1[C@@H](COCc1ccccc1)NC(=O)C(C)(C)N                   42
3  CC(C)(N)C(=O)N[C@H](COCc1ccccc1)c1nnn(CCc2cc3ccccc3n2S(C)(=O)=O)n1                  150

A = CC(C)(N)C(=O)N[C@H](COCc1ccccc1)c1nnn(Cc2ccccc2NS(C)(=O)=O)n1
B = CC(C)(N)C(=O)N[C@H](COCc1ccccc1)c1nnnn1CCC#N
Q: Could you determine which record has the numerically smaller EC50? Candidates: A and B Please indicate the selected item by its label.
Result: B
(B: 30 nM, A: 426 nM)

---

molecular target: Growth hormone secretagogue receptor type 1 (Homo sapiens, UniProt Q92847); assay: Displacement of [125I]ghrelin from human GHSR1a after 1 hr
Sequence (Q92847 whole entry): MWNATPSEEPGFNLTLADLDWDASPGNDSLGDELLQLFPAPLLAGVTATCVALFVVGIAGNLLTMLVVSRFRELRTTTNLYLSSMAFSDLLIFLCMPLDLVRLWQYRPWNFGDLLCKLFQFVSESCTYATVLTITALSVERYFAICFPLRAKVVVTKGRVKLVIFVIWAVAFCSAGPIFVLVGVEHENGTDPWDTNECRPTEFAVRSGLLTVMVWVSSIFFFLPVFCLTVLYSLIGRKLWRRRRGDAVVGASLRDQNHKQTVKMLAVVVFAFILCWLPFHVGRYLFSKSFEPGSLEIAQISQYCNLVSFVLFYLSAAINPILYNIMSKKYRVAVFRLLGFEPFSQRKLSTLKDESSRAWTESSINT
pKi: −log10 of the molar value.
READOUT KIND: pKi

Answered cases to consult:
> print(dat)
                                    molecule                     target.or.test.system  experimental.result
 1  COC(=O)C(c1ccccc1)n1nnnc1[C@@H](COCc1ccccc1)NC(=O)C(C)(C)N (some centres undefined)  Growth hormone secretagogue receptor type 1 (Homo sapiens, UniProt Q92847)                 6.33
 2  CC(C)(N)C(=O)N[C@H](COCc1ccccc1)c1nnnn1CCCCC#N  Growth hormone secretagogue receptor type 1 (Homo sapiens, UniProt Q92847)                 5.51
 3  CCCCNC(=O)CCCn1nnnc1[C@@H](COCc1ccccc1)NC(=O)C(C)(C)N  Growth hormone secretagogue receptor type 1 (Homo sapiens, UniProt Q92847)                 5.75
 4  CC(C)(N)C(=O)N[C@H](COCc1ccccc1)c1nnn(CCc2ccccc2NS(C)(=O)=O)n1  Growth hormone secretagogue receptor type 1 (Homo sapiens, UniProt Q92847)                 5.58
 5  CN(c1ccccc1CCCn1nnc([C@@H](COCc2ccccc2)NC(=O)C(C)(C)N)n1)S(C)(=O)=O  Growth hormone secretagogue receptor type 1 (Homo sapiens, UniProt Q92847)                 5.62
 6  CC(C)(N)C(=O)N[C@H](COCc1ccccc1)c1nnnn1C/C=C/c1ccccc1  Growth hormone secretagogue receptor type 1 (Homo sapiens, UniProt Q92847)                 6.72
 7  CC(C)(N)C(=O)N[C@H](COCc1ccccc1)c1nnn(Cc2ccccc2)n1  Growth hormone secretagogue receptor type 1 (Homo sapiens, UniProt Q92847)                 5.32
 8  CC(C)(N)C(=O)N[C@H](COCc1ccccc1)c1nnnn1CCC(=O)NCCc1ccccc1  Growth hormone secretagogue receptor type 1 (Homo sapiens, UniProt Q92847)                 6.11
 9  COC(=O)CCCn1nnnc1[C@@H](COCc1ccccc1)NC(=O)C(C)(C)N  Growth hormone secretagogue receptor type 1 (Homo sapiens, UniProt Q92847)                 5.62
10  CC(C)(N)C(=O)N[C@H](COCc1ccccc1)c1nnnn1CCC(=O)NCCCc1ccccc1  Growth hormone secretagogue receptor type 1 (Homo sapiens, UniProt Q92847)                 6.09

1 = CC(C)(N)C(=O)N[C@H](COCc1ccccc1)c1nnnn1Cc1ccccc1
2 = CC(C)(N)C(=O)N[C@H](COCc1ccccc1)c1nnnn1CCc1cc2ccccc2n1S(C)(=O)=O
3 = CC(C)(N)C(=O)N[C@H](COCc1ccccc1)c1nnnn1CCc1nnn[nH]1
4 = CC(C)(N)C(=O)N[C@H](COCc1ccccc1)c1nnnn1CCCc1ccccc1
Q: Sequence the entries by pKi, beginning with the highest number. Write out the labels following the order that was asked for.
Result: 4, 2, 1, 3

I = CCCCNC(=O)CCn1nnnc1[C@@H](CCc1ccccc1)NC(=O)C(C)(C)N
II = CCCCNC(=O)CCn1nnnc1[C@@H](COCc1ccccc1)NC(=O)C(C)(C)N
Q: Could you please tell me which of these two has the higher pKi: I or II ? Please indicate the selected item by its label.
Result: I

1 = CC(C)(N)C(=O)N[C@H](COCc1ccccc1)c1nnn(CCc2cc3ccccc3n2S(C)(=O)=O)n1
2 = CC(C)(N)C(=O)N[C@H](COCc1ccccc1)c1nnnn1CCC#N
Q: Could you determine which record has the numerically smaller pKi? Candidates: 1 and 2 Please indicate the selected item by its label.
Result: 2
(2: 5.53, 1: 5.90)

---

molecular target: Growth hormone secretagogue receptor type 1 (Homo sapiens); experiment: Agonist activity at human GHS receptor expressed in H4 glioma cells assessed as intracellular calcium concentration by FLIPR assay
READOUT KIND: EC50 (µM)

Answered cases to consult:
> print(dat)
                                   compound  readout.kind  experimental.result
1  CC(C)(N)C(=O)N[C@H](COCc1ccccc1)c1nnn(Cc2ccccc2)n1          EC50                 1.12
2  CC(C)(N)C(=O)N[C@H](COCc1ccccc1)c1nnnn1C/C=C/c1ccccc1          EC50                0.012
3  CC(C)(N)C(=O)N[C@H](COCc1ccccc1)c1nnnn1CCC(=O)NCc1ccccc1          EC50                0.051

1 = CCCCNC(=O)CCCn1nnnc1[C@@H](COCc1ccccc1)NC(=O)C(C)(C)N
2 = CC(C)(N)C(=O)N[C@H](COCc1ccccc1)c1nnnn1CC1CN(S(C)(=O)=O)c2ccccc21 (stereo not given in full)
Q: Could you determine which record has the numerically smaller EC50? Candidates: 1 and 2 Please indicate the selected item by its label.
Result: 1
(1: 0.03 µM, 2: 0.147 µM)

---

target: Growth hormone secretagogue receptor type 1 (Homo sapiens); experiment: Agonist activity at human GHS receptor expressed in H4 glioma cells assessed as intracellular calcium concentration by FLIPR assay
pEC50: −log10 of the molar value.
READOUT KIND: pEC50

Answered cases to consult:
> print(dat)
                                   molecule  experimental.result
1  CC(C)(N)C(=O)N[C@H](COCc1ccccc1)c1nnn(CCCCC#N)n1                 5.73
2  CC(C)(N)C(=O)N[C@H](COCc1ccccc1)c1nnnn1Cc1ccc(NS(C)(=O)=O)cc1                 6.59

a = CC(C)(N)C(=O)N[C@H](COCc1ccccc1)c1nnnn1CC#N
b = CC(C)(N)C(=O)N[C@H](COCc1ccccc1)c1nnn(Cc2ccc(NS(C)(=O)=O)cc2)n1
c = COC(=O)C(c1ccccc1)n1nnc([C@@H](COCc2ccccc2)NC(=O)C(C)(C)N)n1 (stereo not given in full)
Q: Sequence the entries by pEC50, beginning with the highest number. Write out the labels following the order that was asked for.
Result: a, b, c
(a: 7.54, b: 6.01, c: 5.50)

---

target: Growth hormone secretagogue receptor type 1 (Homo sapiens, UniProt Q92847); assay: Displacement of [125I]ghrelin from human GHSR1a after 1 hr
READOUT KIND: Ki (µM)

> print(dat)
                                   molecule                     target.or.test.system  experimental.result
1  CC(C)(N)C(=O)N[C@H](COCc1ccccc1)c1nnnn1CC#N  Growth hormone secretagogue receptor type 1 (Homo sapiens, UniProt Q92847)                 4.17

1 = CC(C)(N)C(=O)N[C@H](COCc1ccccc1)c1nnnn1CCC(=O)NCc1ccccc1
2 = CC(C)(N)C(=O)N[C@H](COCc1ccccc1)c1nnnn1CC1CN(S(C)(=O)=O)c2ccccc21 (some centres undefined)
3 = CC(C)(N)C(=O)N[C@H](COCc1ccccc1)c1nnnn1CCCCCNC(=O)OCc1ccccc1
4 = COC(=O)CCn1nnnc1[C@@H](COCc1ccccc1)NC(=O)C(C)(C)N
Q: Rank items: key Ki, increasing. Write out the labels following the order that was asked for.
Result: 3, 1, 2, 4
(3: 0.32 µM, 1: 1.07 µM, 2: 1.59 µM, 4: 3.38 µM)

---

target: Growth hormone secretagogue receptor type 1 (Homo sapiens, UniProt Q92847); assay: Agonist activity at human GHS receptor expressed in H4 glioma cells assessed as intracellular calcium concentration by FLIPR assay
READOUT KIND: EC50 (nM)

> print(dat)
                                    compound                     target.or.test.system  unit  experimental.result
 1  CN(c1ccccc1CCCn1nnnc1[C@@H](COCc1ccccc1)NC(=O)C(C)(C)N)S(C)(=O)=O  Growth hormone secretagogue receptor type 1 (Homo sapiens, UniProt Q92847)    nM                   14
 2  CC(C)(N)C(=O)N[C@H](COCc1ccccc1)c1nnnn1CCc1cc2ccccc2n1S(C)(=O)=O  Growth hormone secretagogue receptor type 1 (Homo sapiens, UniProt Q92847)    nM                    4
 3  CC(C)(N)C(=O)N[C@H](COCc1ccccc1)c1nnn(Cc2cccc(NS(C)(=O)=O)c2)n1  Growth hormone secretagogue receptor type 1 (Homo sapiens, UniProt Q92847)    nM                  868
 4  CC(C)(N)C(=O)N[C@H](COCc1ccccc1)c1nnn(C/C=C/c2ccccc2)n1  Growth hormone secretagogue receptor type 1 (Homo sapiens, UniProt Q92847)    nM                  517
 5  CC(C)(N)C(=O)N[C@H](COCc1ccccc1)c1nnnn1CCc1nnn[nH]1  Growth hormone secretagogue receptor type 1 (Homo sapiens, UniProt Q92847)    nM                  347
 6  COC(=O)C(c1ccccc1)n1nnnc1[C@@H](COCc1ccccc1)NC(=O)C(C)(C)N (some centres undefined)  Growth hormone secretagogue receptor type 1 (Homo sapiens, UniProt Q92847)    nM                   20
 7  CC(C)(N)C(=O)N[C@H](COCc1ccccc1)c1nnn(CC#N)n1  Growth hormone secretagogue receptor type 1 (Homo sapiens, UniProt Q92847)    nM                 1520
 8  CCCCNC(=O)CCn1nnnc1[C@@H](CCc1ccccc1)NC(=O)C(C)(C)N  Growth hormone secretagogue receptor type 1 (Homo sapiens, UniProt Q92847)    nM                   49
 9  CN(c1ccccc1CCCn1nnc([C@@H](COCc2ccccc2)NC(=O)C(C)(C)N)n1)S(C)(=O)=O  Growth hormone secretagogue receptor type 1 (Homo sapiens, UniProt Q92847)    nM                  107
10  CC(C)(N)C(=O)N[C@H](COCc1ccccc1)c1nnnn1CCC(=O)NCCCc1ccccc1  Growth hormone secretagogue receptor type 1 (Homo sapiens, UniProt Q92847)    nM                   59

1 = CC(C)(N)C(=O)N[C@H](COCc1ccccc1)c1nnnn1CCc1ccccc1NS(C)(=O)=O
2 = COC(=O)CCn1nnnc1[C@@H](COCc1ccccc1)NC(=O)C(C)(C)N
3 = CC(C)(N)C(=O)N[C@H](COCc1ccccc1)c1nnn(CC2Cc3ccccc3N2S(C)(=O)=O)n1 (some centres undefined)
Q: Rank items: key EC50, increasing. Write out the labels following the order that was asked for.
Result: 2, 1, 3
(2: 43 nM, 1: 67 nM, 3: 546 nM)

I = CC(C)(N)C(=O)N[C@H](COCc1ccccc1)c1nnnn1Cc1ccccc1NS(C)(=O)=O
II = CC(C)(N)C(=O)N[C@H](COCc1ccccc1)c1nnnn1CCCCCNS(C)(=O)=O
III = CC(C)(N)C(=O)N[C@H](COCc1ccccc1)c1nnnn1CCCCCNC(=O)OCc1ccccc1
Q: Rank items: key EC50, increasing. Write out the labels following the order that was asked for.
Result: III, II, I
(III: 10 nM, II: 75 nM, I: 390 nM)

a = CC(C)(N)C(=O)N[C@H](COCc1ccccc1)c1nnnn1CCCCC#N
b = CC(C)(N)C(=O)N[C@H](COCc1ccccc1)c1nnnn1CCCc1ccccc1
Q: Could you determine which record has the numerically smaller EC50? Candidates: a and b Please indicate the selected item by its label.
Result: b

Sourced from ChEMBL document CHEMBL1137507
